Cited source: paper PMC5829162

Biological target: FLT3 kinase (Homo sapiens)
Construct: purchased Invitrogen
Experiment: Biochemical enzyme inhibition assay (microfluidics, Caliper EZ Reader II), FLT3
Conditions: ligand efficiency for FLT3 inhibition
Threshold check on LE: at or above 0.2 gives Fulfilled, strictly below gives Not fulfilled.

>>> assigned_category("O=C(Cc1ccc(Nc2cc(NCCCN3CCCC3)ncn2)cc1)Nc1ccc(OC(F)(F)F)cc1 [13t]")
"Fulfilled"
>>> assigned_category("CCCCNc1cc(Oc2ccc(CC(=O)Nc3nc(C(C)(C)C)cs3)cc2)ncn1 [13aj]")
"Fulfilled"
>>> assigned_category("CC(C)(C)c1cc(NC(=O)Cc2ccc(Nc3cc(Oc4ccc(Br)cc4)ncn3)cc2)no1 [13o]")
"Not fulfilled"
>>> assigned_category("CC(C)(C)c1cc(NC(=O)Cc2ccc(Nc3cc(N4CCOCC4)ncn3)cc2)no1 [13p]")
"Fulfilled"
>>> assigned_category("CC(C)(C)c1cc(NC(=O)Cc2ccc(Nc3cc(Nc4ccc(S(C)(=O)=O)cc4)ncn3)cc2)n(-c2ccc(F)cc2)n1 [13g]")
"Not fulfilled"
>>> assigned_category("CN1CCN(c2cc(Nc3ccc(CC(=O)Nc4cc(C(C)(C)C)nn4-c4ccc(Br)cc4)cc3)ncn2)CC1 [13j]")
"Not fulfilled"

[ask] Test whether the compound CNc1cc(Nc2ccc(NC(=O)Nc3cc(C(C)(C)C)nn3C)cc2)ncn1 [24b] records LE of 0.2 or higher.
[reply] Fulfilled

[ask] Test whether the compound O=C(Cc1ccc(Nc2cc(Nc3cccc(C(F)(F)F)c3)ncn2)cc1)NC1CC1 [13af] records LE of 0.2 or higher.
[reply] Fulfilled

====

Target: RET (Homo sapiens)
Sequence (P07949 29-1114, species assumed): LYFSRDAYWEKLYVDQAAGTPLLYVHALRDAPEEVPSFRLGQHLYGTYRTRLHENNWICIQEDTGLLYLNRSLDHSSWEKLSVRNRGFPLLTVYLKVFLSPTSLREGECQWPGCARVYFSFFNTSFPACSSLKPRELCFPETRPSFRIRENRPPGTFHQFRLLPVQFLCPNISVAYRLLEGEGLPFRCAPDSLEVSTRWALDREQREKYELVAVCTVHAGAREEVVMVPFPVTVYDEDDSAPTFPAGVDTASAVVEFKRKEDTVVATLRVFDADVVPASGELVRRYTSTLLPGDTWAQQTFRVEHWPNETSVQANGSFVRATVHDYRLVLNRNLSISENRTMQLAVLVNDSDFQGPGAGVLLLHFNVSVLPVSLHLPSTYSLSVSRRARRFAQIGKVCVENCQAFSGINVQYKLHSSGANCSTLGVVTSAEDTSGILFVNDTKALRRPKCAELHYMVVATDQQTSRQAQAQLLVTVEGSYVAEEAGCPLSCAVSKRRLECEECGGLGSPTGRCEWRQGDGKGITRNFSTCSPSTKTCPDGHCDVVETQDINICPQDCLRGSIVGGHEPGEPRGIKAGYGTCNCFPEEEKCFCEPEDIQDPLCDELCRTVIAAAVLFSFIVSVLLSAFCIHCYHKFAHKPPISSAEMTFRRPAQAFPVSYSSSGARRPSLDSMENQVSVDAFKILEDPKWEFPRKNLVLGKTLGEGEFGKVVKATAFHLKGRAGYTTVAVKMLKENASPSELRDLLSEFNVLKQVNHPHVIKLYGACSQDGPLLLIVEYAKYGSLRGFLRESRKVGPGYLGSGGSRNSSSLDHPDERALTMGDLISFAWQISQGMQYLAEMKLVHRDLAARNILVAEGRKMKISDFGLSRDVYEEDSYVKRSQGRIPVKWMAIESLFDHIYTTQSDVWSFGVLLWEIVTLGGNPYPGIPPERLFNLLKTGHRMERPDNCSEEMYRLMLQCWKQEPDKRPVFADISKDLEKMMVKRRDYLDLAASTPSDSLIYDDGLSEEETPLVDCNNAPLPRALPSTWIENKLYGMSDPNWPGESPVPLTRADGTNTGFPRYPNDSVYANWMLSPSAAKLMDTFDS
Test: Biochemical kinase selectivity assay, RET
Settings: in vitro kinase assay; read-out: RET IC50 (nM) ± SD
result-type: IC50 (nM)
The figure you give is taken to be in nM; do not add the unit.

>>> numeric_readout("Cn1nc(C(C)(C)C)cc1NC(=O)Cc1ccc(Nc2cc(Nc3ccc(S(C)(=O)=O)cc3)ncn2)cc1 [13a]")
4710

API: the following record is the query input.
[ask] # return recorded IC50 for entry CC(C)(C)c1cc(NC(=O)Cc2ccc(Nc3cc(Nc4ccc(S(C)(=O)=O)cc4)ncn3)cc2)no1 [13k]
[reply] 1660

====

Target: FLT3 kinase (Homo sapiens, UniProt P36888)
Construct: purchased Invitrogen
Experiment: Biochemical enzyme inhibition assay (microfluidics, Caliper EZ Reader II), FLT3
Details: in vitro kinase assay; 60 min pre-incubation, ATP 190 µM; three independent experiments; read-out: FLT3 IC50 (nM) ± SD
Listed below: IC50 values for each entry.
The figure you give is taken to be in nM; do not add the unit.

Solved cases below.
>>> numeric_readout("CC(C)(C)c1cc(NC(=O)Cc2ccc(Nc3cc(N4CCOCC4)ncn3)cc2)no1 [13p]")
395
>>> numeric_readout("CC(C)(C)c1cc(NC(=O)Cc2ccc(Nc3cc(Nc4ccc(S(C)(=O)=O)cc4)ncn3)cc2)n(-c2ccc(F)cc2)n1 [13g]")
3230

API: the following record is the query input.
[ask] # return recorded IC50 for entry Cn1nc(C(C)(C)C)cc1NC(=O)Cc1ccc(Nc2cc(N3CCOCC3)ncn2)cc1 [13i]
[reply] 428

====

Target: FLT3 kinase (Homo sapiens, UniProt P36888)
Construct: purchased Invitrogen
Assay: Biochemical enzyme inhibition assay (microfluidics, Caliper EZ Reader II), FLT3
Details: in vitro kinase assay; 60 min pre-incubation, ATP 190 µM; three independent experiments; read-out: FLT3 IC50 (nM) ± SD
# note: exactly 5000 nM is not below, so it is NOT MET; use MET for IC50 strictly under it

Example entries begin here.
>>> assigned_category("CCCCNc1cc(Oc2ccc(CC(=O)Nc3nc(C(C)(C)C)cs3)cc2)ncn1 [13aj]")
"NOT MET"
>>> assigned_category("O=C(Cc1ccc(Nc2cc(N3CCOCC3)ncn2)cc1)NC1CC1 [13ai]")
"NOT MET"
>>> assigned_category("CC(C)(C)c1cc(NC(=O)Nc2ccc(Nc3cc(Nc4ccc(S(C)(=O)=O)cc4)ncn3)cc2)no1 [24c]")
"MET"
>>> assigned_category("CN(C)c1cc(Oc2ccc(CC(=O)Nc3cc(C(C)(C)C)on3)cc2)ncn1 [13q]")
"NOT MET"
>>> assigned_category("O=C(Cc1ccc(Nc2cc(NCCCN3CCCC3)ncn2)cc1)Nc1ccc(OC(F)(F)F)cc1 [13t]")
"MET"

[ask] Threshold test, IC50 < 5000 nM: CC(C)(C)c1cc(NC(=O)Cc2ccc(Nc3cc(Nc4ccc(S(C)(=O)=O)cc4)ncn3)cc2)no1 [13k]
[reply] MET

[ask] Threshold test, IC50 < 5000 nM: CS(=O)(=O)c1ccc(Nc2cc(Nc3ccc(CC(=O)Nc4cccc(C(F)(F)F)c4)cc3)ncn2)cc1 [13s]
[reply] MET

[ask] Threshold test, IC50 < 5000 nM: CS(=O)(=O)c1ccc(Nc2cc(Nc3ccc(CC(=O)Nc4cccc(F)c4)cc3)ncn2)cc1 [13ac]
[reply] NOT MET

[ask] Threshold test, IC50 < 5000 nM: Cn1nc(C(C)(C)C)cc1NC(=O)Cc1ccc(Oc2cc(Nc3ccc(S(C)(=O)=O)cc3)ncn2)cc1 [13e]
[reply] MET

====

Listed below: melting point values for each entry.

[ask] # return recorded melting point for entry CN1CCN(c2cc(Nc3ccc(CC(=O)Nc4cc(C(C)(C)C)nn4-c4ccc(Br)cc4)cc3)ncn2)CC1 [13j]
[reply] 110 to 112 °C

[ask] # return recorded melting point for entry COc1ccc(CNC(=O)Cc2ccc(Oc3cc(NC4CCN(Cc5ccccc5)CC4)ncn3)cc2)c(OC)c1 [13ak]
[reply] 102 to 104 °C

====

Target: FLT3 kinase (Homo sapiens)
Construct: purchased Invitrogen
Sequence (P36888 27-993): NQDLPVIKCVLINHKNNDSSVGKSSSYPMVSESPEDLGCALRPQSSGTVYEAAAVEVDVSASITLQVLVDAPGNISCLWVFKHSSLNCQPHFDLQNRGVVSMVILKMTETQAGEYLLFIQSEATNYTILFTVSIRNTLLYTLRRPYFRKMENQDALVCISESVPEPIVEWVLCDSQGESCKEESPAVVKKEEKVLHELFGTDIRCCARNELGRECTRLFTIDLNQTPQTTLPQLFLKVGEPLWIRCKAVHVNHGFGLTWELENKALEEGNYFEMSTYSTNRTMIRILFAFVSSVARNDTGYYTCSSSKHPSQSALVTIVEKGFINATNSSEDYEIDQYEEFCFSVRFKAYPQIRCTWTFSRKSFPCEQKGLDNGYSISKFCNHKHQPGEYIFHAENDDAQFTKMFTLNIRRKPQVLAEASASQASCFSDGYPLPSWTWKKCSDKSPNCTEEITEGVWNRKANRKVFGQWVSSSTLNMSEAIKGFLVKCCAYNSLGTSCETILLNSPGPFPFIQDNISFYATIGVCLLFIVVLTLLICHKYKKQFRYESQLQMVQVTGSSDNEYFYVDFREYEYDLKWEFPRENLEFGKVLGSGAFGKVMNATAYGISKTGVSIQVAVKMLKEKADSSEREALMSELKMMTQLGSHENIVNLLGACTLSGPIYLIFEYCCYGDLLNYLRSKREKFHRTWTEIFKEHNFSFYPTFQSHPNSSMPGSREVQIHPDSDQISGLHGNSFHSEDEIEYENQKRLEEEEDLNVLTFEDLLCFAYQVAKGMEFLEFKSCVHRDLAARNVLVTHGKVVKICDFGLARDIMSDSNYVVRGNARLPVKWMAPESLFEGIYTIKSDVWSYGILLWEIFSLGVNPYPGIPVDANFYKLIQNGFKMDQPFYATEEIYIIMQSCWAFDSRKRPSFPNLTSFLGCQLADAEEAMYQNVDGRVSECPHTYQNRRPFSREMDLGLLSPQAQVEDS
Assay: Biochemical enzyme inhibition assay (microfluidics, Caliper EZ Reader II), FLT3
Conditions: in vitro kinase assay; 60 min pre-incubation, ATP 190 µM; three independent experiments; read-out: FLT3 IC50 (nM) ± SD
# note: exactly 100 nM is not below, so it is Not fulfilled; use Fulfilled for IC50 strictly under it

>>> assigned_category("CNc1cc(Oc2ccc(CC(=O)Nc3ccc(C(C)(C)C)cc3)cc2)ncn1 [13x]")
"Not fulfilled"
>>> assigned_category("Cn1nc(C(C)(C)C)cc1NC(=O)Cc1ccc(Nc2cc(NCCCN3CCCCC3)ncn2)cc1 [13c]")
"Not fulfilled"
>>> assigned_category("CN1CCN(c2cc(Nc3ccc(CC(=O)Nc4cc(C(C)(C)C)nn4-c4ccc(Br)cc4)cc3)ncn2)CC1 [13j]")
"Not fulfilled"

[ask] Threshold test, IC50 < 100 nM: CC(C)(C)c1cc(NC(=O)Cc2ccc(Nc3cc(Nc4cccc(C(F)(F)F)c4)ncn3)cc2)no1 [13m]
[reply] Not fulfilled

[ask] Threshold test, IC50 < 100 nM: Cn1nc(C(C)(C)C)cc1NC(=O)Nc1ccc(Nc2cc(Nc3ccc(S(C)(=O)=O)cc3)ncn2)cc1 [24a]
[reply] Fulfilled

[ask] Threshold test, IC50 < 100 nM: Cn1nc(C(C)(C)C)cc1NC(=O)Cc1ccc(Nc2cc(Nc3ccc(S(C)(=O)=O)cc3)ncn2)cc1 [13a]
[reply] Fulfilled

[ask] Threshold test, IC50 < 100 nM: CNc1cc(Oc2ccc(CC(=O)Nc3ccc(F)cc3)cc2)ncn1 [13ad]
[reply] Not fulfilled
